Ref: patent US5965539A

target: FTase (Homo sapiens); construct: FTase and GGTase I activities from 60,000×g supernatants of human Burkitt lymphoma (Daudi) cells; endogenous in cells; host or cells: human Burkitt lymphoma (Daudi) cells, 60,000xg supernatant (partially purified); assay: FTase activity assay: transfer of [3H]farnesyl from FPP to recombinant H-Ras-CVLS, Daudi 60,000xg supernatant; assay type: biochemical; conditions: Table 4; read-out: FTase IC50
Property Label: pIC50
Please keep in mind that pIC50 is minus log10 of the molar concentration; only the number is needed.

**Q:** Fill in the blank: the reported pIC50 of COc1cc(NC[C@@H](N)CS)ccc1-c1cccc(C(=O)O)c1 [FTI-281] is ____.
**A:** 7.40

**Q:** Now the same for CCS(=O)(=O)NCC(N)C(=O)Nc1ccc(-c2cccc(C(=O)O)c2)cc1 (stereo not drawn) [FTI-295]
**A:** 3.70

**Q:** Now the same for CSCC[C@H](NC(=O)c1ccc(NC[C@@H](N)CS)cc1)C(=O)O [FTI-249]
**A:** 6.52

**Q:** Now the same for N[C@@H](CS)C(=O)Nc1ccc(-c2cccc(C(=O)O)c2)cc1 [FTI-278, Cysteinyl-4-amino-3'-carboxybiphenyl]
**A:** 4.87

**Q:** Now the same for N[C@@H](CS)CNc1ccc(-c2ccccc2C(=O)O)cc1 [FTI-273]
**A:** 6.27

**Q:** Now the same for NC[C@H](N)CNc1ccc(-c2cccc(C(=O)O)c2)cc1 [FTI-292]
**A:** 4.22

**Q:** Now the same for Cc1cccc(-c2ccc(NC[C@@H](N)CS)cc2-c2ccccc2)c1 [FTI-285]
**A:** 5.68

**Q:** Now the same for N[C@@H](CS)CNc1ccc(-c2cccc(C(=O)O)c2)cc1 [FTI-265]
**A:** 6.94

**Q:** Now the same for CCCOc1cc(NC[C@@H](N)CS)ccc1-c1cccc(C(=O)O)c1 [FTI-288, red.Cys-4-amino-2-OPr-3'-carboxybiphenyl]
**A:** 7.39

**Q:** Now the same for NCC(N)CNc1ccc(-c2cccc(C(=O)O)c2)cc1 (stereo not drawn) [FTI-282]
**A:** 4.30

**Q:** Now the same for N[C@@H](CS)CNCc1cccc(-c2cccc(C(=O)O)c2)c1 [FTI-283, red.Cys-3-aminomethyl-3'-carboxybiphenyl]
**A:** 4.96

**Q:** Now the same for COC(=O)c1cccc(-c2ccc(NC[C@@H](N)CS)cc2)c1 [FTI-259]
**A:** 6.04

**Q:** Now the same for NCC(N)C(=O)Nc1ccc(-c2cccc(C(=O)O)c2)cc1 (stereo not drawn) [FTI-291]
**A:** 3.68

**Q:** Now the same for N[C@@H](CS)CNc1ccc(-c2cccc(-c3nnn[nH]3)c2)cc1 [FTI-2102, red.Cys-4-amino-3'-tetrazolylbiphenyl]
**A:** 7.52

**Q:** Now the same for Cc1cccc(-c2ccc(NC[C@@H](N)CS)cc2)c1 [FTI-263]
**A:** 6.15

**Q:** Now the same for N[C@@H](CS)CNc1ccc(-c2cccc(C(=O)O)c2)c(-c2ccccc2)c1 [FTI-289]
**A:** 7.80

**Q:** Now the same for N[C@@H](CS)CNc1ccc(-c2ccccc2)cc1 [FTI-268]
**A:** 5.97

**Q:** Now the same for N[C@@H](CS)C(=O)NCc1cccc(-c2cccc(C(=O)O)c2)c1 [FTI-238, Cys-3-aminomethyl-3'-carboxybiphenyl]
**A:** 4.00

====

molecular target: FTase (Homo sapiens, UniProt P49356); construct: FTase and GGTase I activities from 60,000×g supernatants of human Burkitt lymphoma (Daudi) cells; endogenous in cells; host or cells: human Burkitt lymphoma (Daudi) cells, 60,000xg supernatant (partially purified); test: Peptidomimetics farnesylation assay (silica gel TLC); type: biochemical; settings: Table 4; substrate for farnesylation, TLC
Property Label: Substrate

Example results:
# Compound, Substrate
data = [
    ("N[C@@H](CS)CNc1ccc(-c2ccc(C(=O)O)cc2)cc1 [FTI-271]", "no"),
    ("N[C@@H](CS)C(=O)NCc1cccc(-c2cccc(C(=O)O)c2)c1 [FTI-238, Cys-3-aminomethyl-3'-carboxybiphenyl]", "no"),
    ("COC(=O)c1cccc(-c2ccc(NC[C@@H](N)CS)cc2)c1 [FTI-259]", "no"),
    ("N[C@@H](CS)CNc1ccc(-c2ccccc2)cc1 [FTI-268]", "no"),
    ("Cc1cccc(-c2ccc(NC[C@@H](N)CS)cc2)c1 [FTI-263]", "no"),
]

Then there is this compound:
**Q:** Fill in the blank: the reported Substrate of N[C@@H](CS)CNc1ccc(-c2cccc(C(=O)O)c2)cc1 [FTI-265] is ____.
**A:** no

====

target: FTase (Homo sapiens, UniProt P49356); construct: FTase and GGTase I activities from 60,000×g supernatants of human Burkitt lymphoma (Daudi) cells; endogenous in cells; host or cells: human Burkitt lymphoma (Daudi) cells, 60,000xg supernatant (partially purified); test: FTase activity assay: transfer of [3H]farnesyl from FPP to recombinant H-Ras-CVLS, Daudi 60,000xg supernatant; format: biochemical; details: Table 4; FTase over GGTase I
Can you tell me Selectivity for the items I'm about to list?

**Q:** Fill in the blank: the reported Selectivity of "N[C@@H](CS)C(=O)NCc1cccc(-c2cccc(C(=O)O)c2)c1" is ____.
**A:** > 1

**Q:** Now the same for NCC(N)CNc1ccc(-c2cccc(C(=O)O)c2)cc1 (stereo not drawn)
**A:** > 2

**Q:** Now the same for CCS(=O)(=O)NCC(N)C(=O)Nc1ccc(-c2cccc(C(=O)O)c2)cc1 (stereo not drawn)
**A:** > 5
